Tested on: 786-0 renal
experimental.protocol: NCI tumour cell line growth inhibition, 48 h
readout: TGI

Q. // fetch TGI given entry C[C@@H]1CC[C@@H]2[C@@H](C)C[C@H]3[C@@H]4C(C)(C)OC(=O)[C@]4(C)C(=O)[C@@]23C1=O
A. > 100 µM

Q. Consider the compound CC(NC(NC(C)C12CC3CC(CC(C3)C1)C2)=C(C(Cl)=C(Cl)Cl)[N+](=O)[O-])C12CC3CC(CC(C3)C1)C2 (stereo not given) and give its recorded TGI.
A. > 100 µM

Q. Look up and report measured TGI for this entry: O=[N+]([O-])c1nccn1CCCNCCCn1ccnc1[N+](=O)[O-]
A. > 100 µM

Q. For the compound COc1ccc(/C=C2/CCS(=O)(=O)c3ccc(C)cc3C2=O)cc1OC , give its measured TGI value.
A. 27.7 µM

Q. Fill in reported TGI for this entry: CCN(CC)CCNc1ccc(C)c2sc3ccccc3c(=O)c12
A. 9.32 µM

Q. Tell me measured TGI for COc1cc(C23OCC(Cc4cc5c(cc42)OCO5)C3CO)cc(OC)c1OC (stereo not given) please.
A. > 100 µM

Q. Provide TGI value for the following compound: COC(=O)c1c(C(=O)OC)c2c3ccccc3n(C)c2c2c1c1ccccc1n2C
A. > 100 µM

Q. For the compound CC1=NN(C(=O)c2ccc(Cl)cc2)C(=O)/C1=C/c1ccco1 , give its measured TGI value.
A. > 100 µM

Q. Answer with reported TGI of CCOc1c(C#N)c2c(N)ncnc2n1C1OC(CO)C(O)C1O (stereo not given)
A. > 24.9 µM

Q. Using known records, supply TGI for CN1C(=O)C23CCCCC2CC1(c1ccccc1)S3 (stereo not given)
A. > 100 µM
